# Measurement Protocol: Nuclear factor erythroid 2-related factor 2/antioxidant responsive element (Nrf2/ARE) small molecule agonists: luciferase reporter gene qHTS assay in human keratinocytes (AID 1919969); also: nearly all actives have a fitted effect of over 35% in size
# Particulars: KeratinoSens HaCaT ARE-luciferase, luminescence, 24 h; series mostly up to 92.4 µM
Inconclusive results are not listed. Activity calls are given as the source filed them. Calls follow the shape of the full dose curve.
Respond with a class label; see active, inactive

Known results for compounds:
Cc1cc(O)cc(C)c1Cl: inactive
C1CN(CCOCCN2CCOCC2)CCO1: inactive
O=C(O)[C@@H]1[C@H]2C[C@H]3c4[nH]c5ccccc5c4CCN3C[C@@H]2CC[C@@H]1O: inactive
Cc1sccc1Br: inactive
Nc1cccc(N)n1: inactive

Which outcome was entered for the compound CC1=C(O)C(=O)C(C)O1 (stereo not drawn) in this test? inactive

Do the same for `Cc1ccc(Nc2ccc(O)c3c2C(=O)c2ccccc2C3=O)cc1` please inactive

# repeat for `O=C(O[C@@H]1Cc2c(O)cc(O)cc2O[C@@H]1c1cc(O)c(O)c(O)c1)c1cc(O)c(O)c(O)c1` inactive
